- Test Description: Phase 1 Stage 1 clinical pharmacokinetics of SC ZA co-administered with rHuPH20
- Type: in vivo, human
- Stated Conditions: human, serum, sc, ZA 1 mg SC + 24000 U rHuPH20; median, n=3; read-out: Vss/F
Metric Name: Vd/F (L/kg)
// note: answer is a bare numeric in L/kg

Which value of Vd/F has been reported for O=P(O)(O)C(O)(Cn1ccnc1)P(=O)(O)O in the records?
0.988

* * *

- Test Description: Phase 1 Stage 1 clinical pharmacokinetics of SC ZA co-administered with rHuPH20
- Format: in vivo, human
- Stated Conditions: human, serum, sc, 0.0794 mg/kg, AUC (0-24 h), Subj 74; ZA 0.0794 mg/kg SC; inf […]; PH20 6000 U
Metric Name: AUC(0-t) (µg·h/mL)
State just the number; it will be interpreted in µg·h/mL.

Which AUC(0-t) is reported for this molecule? O=P(O)(O)C(O)(Cn1ccnc1)P(=O)(O)O
0.467

* * *

- Test Description: Phase 1 Stage 1 clinical pharmacokinetics of SC ZA co-administered with rHuPH20
- Format: in vivo, human
- Stated Conditions: human, serum, sc, ZA 1 mg SC + 24000 U rHuPH20; median, n=3; read-out: AUC (0-∞)
Metric Name: AUC(0-inf)

I am curious: what AUC(0-inf) value has been reported for O=P(O)(O)C(O)(Cn1ccnc1)P(=O)(O)O [ZA] ?
122 ng·h/mL

* * *

- Test Description: Pharmacokinetics of ZA in pig serum after IV or SC infusion with or without rHuPH20 (LC-MS-MS, non-compartmental analysis)
- Assay type: in vivo
- Stated Conditions: female, Yorkshire, pig, serum, subcutaneous, […], Time 0.333 h; pig ID 69; Study Group 2; SC; ZA […]; 25 mL, 4 min; rHuPH20 0 U/mL; read-out: Zoledronic Acid Serum Concentration
Metric Name: concentration at 0.333 h
Kindly report the value followed by its unit.

Which value of concentration at 0.333 h has been reported for O=P(O)(O)C(O)(Cn1ccnc1)P(=O)(O)O in the records?
210 ng/mL

* * *

- Test Description: Phase 1 Stage 1 clinical pharmacokinetics of SC ZA co-administered with rHuPH20
- Format: in vivo, human
- Stated Conditions: human, serum, sc, ZA 2 mg SC + 24000 U rHuPH20; mean, n=3; read-out: AUC (0-∞)
Metric Name: AUC(0-inf) (ng·h/mL)
I only need the number, in ng·h/mL, no unit after it.

Please look up its AUC(0-inf): O=P(O)(O)C(O)(Cn1ccnc1)P(=O)(O)O
262

* * *

- Test Description: Phase 1 Stage 1 clinical pharmacokinetics of SC ZA co-administered with rHuPH20
- Type: in vivo, human
- Stated Conditions: human, serum, sc, serum; ZA 0.5 mg SC infusion + 24000 Units rHuPH20; 1 h post infusion; n=3; read-out: Median Conc.
Metric Name: concentration at 1 h (ng/mL)
Unit ng/mL implied. Number only.

Entry O=P(O)(O)C(O)(Cn1ccnc1)P(=O)(O)O has what concentration at 1 h?
14.1

* * *

- Test Description: Phase 1 Stage 1 clinical pharmacokinetics of SC ZA co-administered with rHuPH20
- Type: in vivo, human
- Stated Conditions: human, serum, sc, ZA 2 mg SC + 24000 U rHuPH20; mean, n=3
Metric Name: Cmax (ng/mL)
API: value field is a number in ng/mL; no unit string.

For the compound O=P(O)(O)C(O)(Cn1ccnc1)P(=O)(O)O [ZA] , what Cmax is on record?
58.2

* * *

- Test Description: Phase 1 Stage 1 clinical pharmacokinetics of SC ZA co-administered with rHuPH20
- Type: in vivo, human
- Stated Conditions: human, serum, sc, serum; ZA 0.25 mg SC infusion + 24000 Units rHuPH20; 1 h post infusion; individual subjects; read-out: Zoledronic Acid Concentration
Metric Name: concentration at 1 h (ng/mL)
Enter your answer as a number in ng/mL; do not include the unit.

I have this molecule here, O=P(O)(O)C(O)(Cn1ccnc1)P(=O)(O)O [ZA] , and I need its recorded concentration at 1 h.
7.25

* * *

- Test Description: Pharmacokinetics of ZA in pig serum after IV or SC infusion with or without rHuPH20 (LC-MS-MS, non-compartmental analysis)
- Assay type: in vivo
- Stated Conditions: female, Yorkshire, pig, serum, subcutaneous, pig 68, Study Group 3, SC, ZA […], rHuPH20 10000 U/mL, 10 mL over 1.6 min, time 2 h; read-out: Zoledronic Acid Serum Concentration
Metric Name: concentration at 2 h (ng/mL)
Reply numerically in ng/mL, unit not repeated.

What does the data say about its concentration at 2 h? Entry: O=P(O)(O)C(O)(Cn1ccnc1)P(=O)(O)O [ZA]
43.2

* * *

- Test Description: Phase 1 Stage 1 clinical pharmacokinetics of SC ZA co-administered with rHuPH20
- Type: in vivo, human
- Stated Conditions: human, serum, sc, serum; ZA 5 mg SC infusion + 24000 Units rHuPH20; 6 h post infusion; n=3; read-out: Mean Conc.
Metric Name: concentration at 6 h
Record the result as number plus unit.

Would you kindly share the measured concentration at 6 h for O=P(O)(O)C(O)(Cn1ccnc1)P(=O)(O)O ?
0.0235 µg/mL

* * *

- Test Description: Pharmacokinetics of ZA in pig serum after IV or SC infusion with or without rHuPH20 (LC-MS-MS, non-compartmental analysis)
- Assay type: in vivo
- Stated Conditions: female, Yorkshire, pig, serum, subcutaneous, […], Time 2 h; pig ID 60; Study Group 2; SC; ZA […]; 100 mL, 16 min; rHuPH20 0 U/mL; read-out: Zoledronic Acid Serum Concentration
Metric Name: concentration at 2 h (ng/mL)
Give the number; ng/mL is assumed, so skip it.

Reported concentration at 2 h for O=P(O)(O)C(O)(Cn1ccnc1)P(=O)(O)O : what is it?
75.8

* * *

- Test Description: Phase 1 Stage 1 clinical pharmacokinetics of SC ZA co-administered with rHuPH20
- Format: in vivo, human
- Stated Conditions: human, serum, sc, 0.0339 mg/kg, Subj 29; ZA 0.0339 mg/kg SC; inf 0.556 hr; PH20 24000 U
Metric Name: Cmax (ng/mL)
# value in ng/mL; strip the unit string

Returns the measured Cmax for the input compound. Input: O=P(O)(O)C(O)(Cn1ccnc1)P(=O)(O)O
62.8

* * *

- Test Description: Phase 1 Stage 1 clinical pharmacokinetics of SC ZA co-administered with rHuPH20
- Type: in vivo, human
- Stated Conditions: human, serum, sc, serum; ZA 0.25 mg SC infusion + 24000 Units rHuPH20; 6 h post infusion; n=3; read-out: Median Conc.
Metric Name: concentration at 6 h (ng/mL)
Provide the reading as a plain figure in ng/mL.

Query: concentration at 6 h; subject: O=P(O)(O)C(O)(Cn1ccnc1)P(=O)(O)O
1.35

* * *

- Test Description: Phase 1 Stage 1 clinical pharmacokinetics of SC ZA co-administered with rHuPH20
- Format: in vivo, human
- Stated Conditions: human, serum, sc, AUC (0-12h), ZA 0.5 mg SC + 24000 U rHuPH20; mean, n=3
Metric Name: AUC(0-t) (ng·h/mL)
Give the quantity in ng·h/mL, number only.

What AUC(0-t) value was documented for this molecule, O=P(O)(O)C(O)(Cn1ccnc1)P(=O)(O)O ?
63.2

* * *

- Test Description: Phase 1 Stage 1 clinical pharmacokinetics of SC ZA co-administered with rHuPH20
- Type: in vivo, human
- Stated Conditions: human, serum, sc, ZA 1 mg SC + 24000 U rHuPH20; individual subjects; read-out: Tmax
Metric Name: Tmax (h)
Report the figure in h without appending any unit label.

Need Tmax of O=P(O)(O)C(O)(Cn1ccnc1)P(=O)(O)O [ZA] , thanks.
1.31

* * *

- Test Description: Pharmacokinetics of ZA in pig serum after IV or SC infusion with or without rHuPH20 (LC-MS-MS, non-compartmental analysis)
- Assay type: in vivo
- Stated Conditions: female, Yorkshire, pig, serum, sc, […], pig 70; SC ZA […], 10 mL over 1.6 min, no rHuPH20; read-out: Vz/F
Metric Name: Vd/F
Reply with the number and its unit after it.

Report Vd/F for O=P(O)(O)C(O)(Cn1ccnc1)P(=O)(O)O please.
0.947 L/kg

* * *

- Test Description: Phase 1 Stage 1 clinical pharmacokinetics of SC ZA co-administered with rHuPH20
- Format: in vivo, human
- Stated Conditions: human, serum, sc, serum; ZA 5 mg SC infusion + 24000 Units rHuPH20; 4 h post infusion; individual subjects; read-out: Zoledronic Acid Concentration
Metric Name: concentration at 4 h
A bare number is not enough; add the unit after it.

Tell me the measured concentration at 4 h of O=P(O)(O)C(O)(Cn1ccnc1)P(=O)(O)O , please.
0.0456 µg/mL

* * *

- Test Description: Phase 1 Stage 1 clinical pharmacokinetics of SC ZA co-administered with rHuPH20
- Assay type: in vivo, human
- Stated Conditions: human, serum, sc, ZA 1 mg SC + 24000 U rHuPH20; mean, n=3; read-out: MRT
Metric Name: MRT (h)
Please respond with the number in h and leave the unit unwritten.

Fill in the blank: the reported MRT of O=P(O)(O)C(O)(Cn1ccnc1)P(=O)(O)O [ZA] is ____.
6.61
